Biological target: PDGF-receptor beta enzyme comprising the tyrosine kinase domain (Homo sapiens)
Construct: from amino acid 545 to 1106 of GenBank Access NO: AAA36427
Sequence (P09619 545-1106): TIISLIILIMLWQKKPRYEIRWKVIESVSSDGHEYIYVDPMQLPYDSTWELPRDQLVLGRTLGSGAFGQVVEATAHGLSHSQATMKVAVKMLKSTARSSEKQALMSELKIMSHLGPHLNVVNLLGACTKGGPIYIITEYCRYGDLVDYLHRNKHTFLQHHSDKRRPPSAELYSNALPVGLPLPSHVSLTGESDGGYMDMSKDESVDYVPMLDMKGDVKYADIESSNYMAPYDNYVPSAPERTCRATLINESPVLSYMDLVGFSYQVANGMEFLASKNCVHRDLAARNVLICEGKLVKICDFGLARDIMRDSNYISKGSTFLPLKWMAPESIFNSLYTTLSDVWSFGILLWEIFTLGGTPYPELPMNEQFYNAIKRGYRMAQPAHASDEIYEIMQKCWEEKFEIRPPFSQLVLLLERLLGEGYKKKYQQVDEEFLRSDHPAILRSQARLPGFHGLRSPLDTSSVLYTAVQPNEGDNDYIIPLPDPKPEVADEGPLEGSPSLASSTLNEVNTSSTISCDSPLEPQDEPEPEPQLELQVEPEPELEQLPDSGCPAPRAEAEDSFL
Experiment: Inhibition of PDGF-receptor kinase activity (cell-free, PLC1 peptide, 33P Flashplate)
Assay type: biochemical
Conditions: PDGF-R kinase activity; read-out: IC50
pIC50: −log10 of the molar value.
observed.property: pIC50

molecule: COc1cccc(Nc2[nH]nc3c2C(C(C)C)c2cc(OC)c(OC)cc2-3)c1 (stereo not drawn)
pIC50: 4.35

[P] CCC1c2cc(OC)c(OC)cc2-c2nn(C(=O)COC)c(Nc3cccc(Br)c3)c21 (stereo not drawn)
[Q] Cc1ccccc1CNc1[nH]nc2c1Cc1cc(F)ccc1-2
[R] COc1cc2c(cc1OC)-c1n[nH]c(Nc3cccc(C(=O)N4CCN(C)CC4)c3)c1C2
[S] Cc1ccc(CNc2[nH]nc3c2Cc2cc(F)ccc2-3)cc1Cl
[T] COc1ccc2c(c1)Cc1c-2n[nH]c1Nc1ccc(C(F)(F)F)cc1
Arrange the 5 entries by pIC50 so the values rise. Reply with the labels, ordered as the question asks.
S, R, T, Q, P

[A] Oc1cc2c(cc1O)-c1n[nH]c(Nc3cccc(Br)c3)c1C2
[B] COc1cc2c(cc1OC)-c1n[nH]c(NCc3ccc(F)c(F)c3)c1C2
Lab note: record which item had the higher pIC50, A or B . Your answer should be the label of the entry you select.
B

[P] CCOc1cccc(Nc2[nH]nc3c2Cc2sccc2-3)c1
[Q] COc1ccc(Nc2[nH]nc3c2C(C)c2ccccc2-3)cc1 (stereo not drawn)
Lab note: record which item had the higher pIC50, P or Q . Your answer should be the label of the entry you select.
P
(P: 7.20, Q: 5.89)

[I] COc1ccc(Nc2[nH]nc3c2C(C)c2ccccc2-3)c(OC)c1 (stereo not drawn)
[II] FC(F)(F)c1cc(Nc2[nH]nc3c2Cc2cc(Cl)ccc2-3)cc(C(F)(F)F)c1
Lab note: record which item had the higher pIC50, I or II . Your answer should be the label of the entry you select.
I
(I: 6.96, II: 5.64)

[a] COc1cc2c(cc1OC)-c1c(c(Nc3cccc(F)c3)nn1C(=O)c1ccc(F)cc1)C2
[b] COc1ccc2c(c1)Cc1c-2n[nH]c1Nc1ccc(OC(F)(F)F)cc1
I'm curious whether a or b has the smaller pIC50 number. Which is it? Your answer should be the label of the entry you select.
b
(b: 4.68, a: 6.33)

[1] COc1cc2c(cc1OC)-c1n[nH]c(Nc3cccc(C(C)O)c3)c1C2 (stereo not drawn)
[2] CC1c2ccccc2-c2n[nH]c(Nc3cc(F)ccc3F)c21 (stereo not drawn)
Lab note: record which item had the higher pIC50, 1 or 2 . Your answer should be the label of the entry you select.
1
(1: 7.53, 2: 7.08)

[a] Nc1ccc2c(c1)Cc1c-2n[nH]c1Nc1cccc(Br)c1
[b] Cc1ccc2c(c1)-c1n[nH]c(NCc3ccc(F)c(F)c3)c1C2
I'm curious whether a or b has the smaller pIC50 number. Which is it? Your answer should be the label of the entry you select.
b

[A] OCCCOc1cccc2c1Cc1c-2n[nH]c1NCc1ccccc1F
[B] Clc1cccc(Nc2[nH]nc3c2Cc2sccc2-3)c1
Lab note: record which item had the higher pIC50, A or B . Your answer should be the label of the entry you select.
B
(B: 7.07, A: 6.29)
